conditions: in dibutyl ether, 298.2 K
metric: solubility (mole fraction)

{"compound": "O=C(O)c1cccc([N+](=O)[O-])c1", "metric": "solubility (mole fraction)", "assay_result": 0.0346}

###

conditions: in isopropanol, 298.2 K
metric: solubility (mole fraction)

{"compound": "O=C(O)c1cccc([N+](=O)[O-])c1", "metric": "solubility (mole fraction)", "assay_result": 0.17}

###

conditions: in isobutanol, 298.2 K
metric: solubility (mole fraction)

{"compound": "O=C(O)c1cccc([N+](=O)[O-])c1", "metric": "solubility (mole fraction)", "assay_result": 0.113}

###

details: in n-butyl acetate, 298.2 K
metric: solubility (mole fraction)

{"compound": "O=C(O)c1cccc([N+](=O)[O-])c1", "metric": "solubility (mole fraction)", "assay_result": 0.108}
